Provide the recorded kcat/KM for the entries that follow.
Molecular target: Factor X, P00742
Sequence (P00742 whole entry, looked up): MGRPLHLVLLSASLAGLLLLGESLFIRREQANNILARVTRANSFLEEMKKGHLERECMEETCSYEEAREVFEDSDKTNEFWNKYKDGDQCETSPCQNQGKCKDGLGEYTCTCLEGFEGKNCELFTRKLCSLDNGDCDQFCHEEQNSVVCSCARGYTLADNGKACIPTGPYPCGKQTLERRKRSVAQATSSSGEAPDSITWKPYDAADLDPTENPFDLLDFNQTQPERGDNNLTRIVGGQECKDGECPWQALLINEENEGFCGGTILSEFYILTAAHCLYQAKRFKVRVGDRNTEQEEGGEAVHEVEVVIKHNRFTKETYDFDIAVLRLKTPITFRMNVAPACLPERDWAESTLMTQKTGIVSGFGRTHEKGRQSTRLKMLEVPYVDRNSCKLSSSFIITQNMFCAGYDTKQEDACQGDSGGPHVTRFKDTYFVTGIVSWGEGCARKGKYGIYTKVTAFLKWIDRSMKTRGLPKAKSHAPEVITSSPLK
Answers are plain numbers, in M⁻¹ s⁻¹.

Worked cases, answers included:
PROTEIN	kcat/KM / M⁻¹ s⁻¹
FIXa-Y155F/R338E/T343R/R403E/E410N (protein) chain 1: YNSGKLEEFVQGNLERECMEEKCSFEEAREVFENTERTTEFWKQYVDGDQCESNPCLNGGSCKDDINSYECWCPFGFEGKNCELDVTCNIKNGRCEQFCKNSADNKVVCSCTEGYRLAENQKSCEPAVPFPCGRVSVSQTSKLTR chain 2: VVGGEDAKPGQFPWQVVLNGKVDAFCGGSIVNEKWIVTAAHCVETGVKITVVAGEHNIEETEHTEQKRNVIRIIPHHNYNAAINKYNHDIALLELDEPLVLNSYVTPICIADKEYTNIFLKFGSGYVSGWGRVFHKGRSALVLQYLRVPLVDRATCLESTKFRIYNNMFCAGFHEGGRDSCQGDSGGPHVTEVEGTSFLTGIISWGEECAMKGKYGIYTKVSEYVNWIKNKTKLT	2.4e+08
FIXa-I251S/R318Y/R338E/E410N (protein) chain 1: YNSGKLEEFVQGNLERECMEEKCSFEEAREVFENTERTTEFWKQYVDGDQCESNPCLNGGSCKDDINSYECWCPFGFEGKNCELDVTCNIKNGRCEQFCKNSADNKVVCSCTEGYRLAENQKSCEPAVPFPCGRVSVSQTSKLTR chain 2: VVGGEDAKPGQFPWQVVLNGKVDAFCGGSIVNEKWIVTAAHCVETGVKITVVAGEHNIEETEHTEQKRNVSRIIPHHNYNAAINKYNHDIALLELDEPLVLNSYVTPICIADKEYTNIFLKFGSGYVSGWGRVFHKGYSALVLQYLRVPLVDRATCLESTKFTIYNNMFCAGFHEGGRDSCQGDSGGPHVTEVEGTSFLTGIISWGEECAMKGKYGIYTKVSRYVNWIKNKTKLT	3.8e+08
FIXa-D104N/K106S/I251S/R318Y/R338E/E410N (protein) chain 1: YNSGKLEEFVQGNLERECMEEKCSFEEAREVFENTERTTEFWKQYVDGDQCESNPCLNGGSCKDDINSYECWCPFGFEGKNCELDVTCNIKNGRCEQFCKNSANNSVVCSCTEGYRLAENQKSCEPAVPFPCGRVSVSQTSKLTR chain 2: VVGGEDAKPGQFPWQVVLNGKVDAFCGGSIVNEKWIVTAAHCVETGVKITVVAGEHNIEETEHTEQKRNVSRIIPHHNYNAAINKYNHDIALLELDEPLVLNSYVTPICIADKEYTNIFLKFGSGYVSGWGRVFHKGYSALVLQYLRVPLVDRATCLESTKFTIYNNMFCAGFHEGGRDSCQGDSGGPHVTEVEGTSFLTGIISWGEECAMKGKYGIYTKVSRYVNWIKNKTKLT	1.3e+08
FIXa D104N/K106S/R318Y/R338E/T343R/R403E/E410N (protein) chain 1: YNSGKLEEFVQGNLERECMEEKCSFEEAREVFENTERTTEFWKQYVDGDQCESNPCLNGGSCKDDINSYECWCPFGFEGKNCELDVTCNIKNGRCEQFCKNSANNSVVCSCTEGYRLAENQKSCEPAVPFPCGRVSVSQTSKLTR chain 2: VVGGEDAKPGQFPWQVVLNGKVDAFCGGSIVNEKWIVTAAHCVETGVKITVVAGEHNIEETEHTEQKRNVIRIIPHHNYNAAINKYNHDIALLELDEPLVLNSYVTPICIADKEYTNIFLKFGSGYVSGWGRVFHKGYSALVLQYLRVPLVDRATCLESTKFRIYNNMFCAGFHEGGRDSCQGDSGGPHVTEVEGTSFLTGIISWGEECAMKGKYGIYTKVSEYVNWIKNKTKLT	2.2e+08
FIXa-Y155F/K228N/K247N/N249S/R318Y/R338E/T343R/R403E/E410N (protein) chain 1: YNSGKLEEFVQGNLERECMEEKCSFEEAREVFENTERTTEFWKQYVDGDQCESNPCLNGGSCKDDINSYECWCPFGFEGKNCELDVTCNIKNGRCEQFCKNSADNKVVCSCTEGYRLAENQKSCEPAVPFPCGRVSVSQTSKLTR chain 2: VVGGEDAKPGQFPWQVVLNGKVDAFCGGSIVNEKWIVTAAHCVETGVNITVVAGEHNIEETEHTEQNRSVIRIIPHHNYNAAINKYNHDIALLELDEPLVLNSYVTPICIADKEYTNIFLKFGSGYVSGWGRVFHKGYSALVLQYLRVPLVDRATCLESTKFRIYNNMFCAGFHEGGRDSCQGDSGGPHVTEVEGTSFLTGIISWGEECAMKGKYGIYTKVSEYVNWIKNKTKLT	3e+08

Could you tell me kcat/KM for each of these proteins? They are listed below.
1. FIXa N260S/R318Y/R338E/R403E/E410N (protein) chain 1: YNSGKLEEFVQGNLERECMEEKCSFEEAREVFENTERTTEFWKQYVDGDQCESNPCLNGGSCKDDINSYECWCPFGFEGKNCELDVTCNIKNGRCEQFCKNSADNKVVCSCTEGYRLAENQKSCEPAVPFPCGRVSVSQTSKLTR chain 2: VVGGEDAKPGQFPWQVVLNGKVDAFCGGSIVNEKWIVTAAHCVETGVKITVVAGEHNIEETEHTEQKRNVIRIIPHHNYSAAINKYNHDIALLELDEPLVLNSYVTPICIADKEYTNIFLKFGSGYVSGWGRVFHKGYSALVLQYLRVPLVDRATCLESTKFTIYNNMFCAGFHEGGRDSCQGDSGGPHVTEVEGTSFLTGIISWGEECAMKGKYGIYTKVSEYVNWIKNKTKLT
2. FIXa R318Y/R338E/T343R/N346D/R403E/E410N (protein) chain 1: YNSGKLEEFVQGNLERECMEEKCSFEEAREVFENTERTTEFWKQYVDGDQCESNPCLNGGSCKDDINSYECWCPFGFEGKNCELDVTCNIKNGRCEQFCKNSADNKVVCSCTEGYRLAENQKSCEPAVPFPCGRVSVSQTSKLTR chain 2: VVGGEDAKPGQFPWQVVLNGKVDAFCGGSIVNEKWIVTAAHCVETGVKITVVAGEHNIEETEHTEQKRNVIRIIPHHNYNAAINKYNHDIALLELDEPLVLNSYVTPICIADKEYTNIFLKFGSGYVSGWGRVFHKGYSALVLQYLRVPLVDRATCLESTKFRIYDNMFCAGFHEGGRDSCQGDSGGPHVTEVEGTSFLTGIISWGEECAMKGKYGIYTKVSEYVNWIKNKTKLT

5.3e+07
8.2e+07
